Assay: Clearance in male beagle dog at 0.5 mg/kg, iv administered as infusion
Type: ADME, organism-based, Canis lupus familiaris
Conditions: in vivo
Recorded metric: clearance

Task: Any idea what clearance was measured for `N#Cc1cccc(S(=O)(=O)c2cnc3cc(F)ccc3c2-c2ccc(Cl)cc2)c1` ?
Result: 6.43 mL/min/kg

* * *

Molecular target: Cytochrome P450 3A4 (Homo sapiens, UniProt P08684)
Sequence (P08684 whole entry): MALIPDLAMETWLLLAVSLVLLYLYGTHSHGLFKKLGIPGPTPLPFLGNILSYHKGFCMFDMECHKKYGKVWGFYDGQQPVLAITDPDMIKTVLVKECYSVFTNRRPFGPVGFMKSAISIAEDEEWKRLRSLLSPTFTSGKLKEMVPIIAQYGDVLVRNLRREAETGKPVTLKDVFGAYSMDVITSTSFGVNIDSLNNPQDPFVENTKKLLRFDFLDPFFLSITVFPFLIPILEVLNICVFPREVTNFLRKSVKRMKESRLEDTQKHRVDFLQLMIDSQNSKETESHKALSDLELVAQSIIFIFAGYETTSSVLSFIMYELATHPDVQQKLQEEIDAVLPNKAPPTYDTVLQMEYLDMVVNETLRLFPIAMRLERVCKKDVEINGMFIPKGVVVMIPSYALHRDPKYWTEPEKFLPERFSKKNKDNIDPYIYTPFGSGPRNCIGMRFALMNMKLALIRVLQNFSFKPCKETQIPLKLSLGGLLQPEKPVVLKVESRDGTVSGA
Recorded metric: IC50

Task: Please state recorded IC50 (tested on Cytochrome P450 3A4 (Homo sapiens, UniProt P08684)) of `N#Cc1cccc(S(=O)(=O)c2cnc3cc(F)ccc3c2-c2ccc(Cl)cc2)c1`
Result: > 10 µM

* * *

Assay: Plasma concentration in Wistar rat at 10 mg/kg, po qd for 19 days during Vogel punished drinking conflict test
Assay type: ADME, organism-based
Recorded metric: concentration at 456 h
Write the numeric value and append its unit.

Task: Any idea what concentration at 456 h was measured for `N#Cc1cccc(S(=O)(=O)c2cnc3cc(F)ccc3c2-c2ccc(Cl)cc2)c1` ?
Result: 513 nM

* * *

Test: Tmax in male beagle dog at 0.5 mg/kg, iv administered as infusion
Assay type: ADME, organism-based, Canis lupus familiaris
Conditions: in vivo
Recorded metric: Tmax
Write the numeric value and append its unit.

Task: Any idea what Tmax was measured for `N#Cc1cccc(S(=O)(=O)c2cnc3cc(F)ccc3c2-c2ccc(Cl)cc2)c1` ?
Result: 30 min

* * *

Assay: Clearance in female Crl:CD(SD) rat at 0.5 mg/kg, iv
Type: ADME, organism-based
Details: in vivo
Recorded metric: clearance (mL/min/kg)
Answers are plain numbers, in mL/min/kg.

Task: Any idea what clearance was measured for `N#Cc1cccc(S(=O)(=O)c2cnc3cc(F)ccc3c2-c2ccc(Cl)cc2)c1` ?
Result: 14.3

* * *

Experiment: Plasma concentration in ip dosed Wistar rat at anxiolytic MED administered as suspension after 75 mins during Vogel punished drinking conflict test
Type: ADME, organism-based
Recorded metric: concentration at 1.25 h (nM)
Numbers only, in nM.

Task: Any idea what concentration at 1.25 h was measured for `O=S(=O)(c1cc(Cl)cc(Cl)c1)c1cnc2cc(F)ccc2c1-c1ccc(F)cc1` ?
Result: 165

* * *

Assay: Clearance in female beagle dog at 0.5 mg/kg, iv administered as infusion
Format: ADME, organism-based, Canis lupus familiaris
Details: in vivo
Recorded metric: clearance (mL/min/kg)
One number for each entry, in mL/min/kg.

Task: Any idea what clearance was measured for `N#Cc1cccc(S(=O)(=O)c2cnc3cc(F)ccc3c2-c2ccc(Cl)cc2)c1` ?
Result: 9.22

* * *

Assay: Terminal elimination half life in female Crl:CD(SD) rat at 0.5 mg/kg, iv
Assay type: ADME, organism-based
Conditions: in vivo, read-out: beta t1/2 (converted)
Recorded metric: half-life
Write the numeric value and append its unit.

Task: Any idea what half-life was measured for `N#Cc1cccc(S(=O)(=O)c2cnc3cc(F)ccc3c2-c2ccc(Cl)cc2)c1` ?
Result: 7.79 h

* * *

Molecular target: Metabotropic glutamate receptor 5 (Homo sapiens, UniProt P41594)
Sequence (P41594 whole entry): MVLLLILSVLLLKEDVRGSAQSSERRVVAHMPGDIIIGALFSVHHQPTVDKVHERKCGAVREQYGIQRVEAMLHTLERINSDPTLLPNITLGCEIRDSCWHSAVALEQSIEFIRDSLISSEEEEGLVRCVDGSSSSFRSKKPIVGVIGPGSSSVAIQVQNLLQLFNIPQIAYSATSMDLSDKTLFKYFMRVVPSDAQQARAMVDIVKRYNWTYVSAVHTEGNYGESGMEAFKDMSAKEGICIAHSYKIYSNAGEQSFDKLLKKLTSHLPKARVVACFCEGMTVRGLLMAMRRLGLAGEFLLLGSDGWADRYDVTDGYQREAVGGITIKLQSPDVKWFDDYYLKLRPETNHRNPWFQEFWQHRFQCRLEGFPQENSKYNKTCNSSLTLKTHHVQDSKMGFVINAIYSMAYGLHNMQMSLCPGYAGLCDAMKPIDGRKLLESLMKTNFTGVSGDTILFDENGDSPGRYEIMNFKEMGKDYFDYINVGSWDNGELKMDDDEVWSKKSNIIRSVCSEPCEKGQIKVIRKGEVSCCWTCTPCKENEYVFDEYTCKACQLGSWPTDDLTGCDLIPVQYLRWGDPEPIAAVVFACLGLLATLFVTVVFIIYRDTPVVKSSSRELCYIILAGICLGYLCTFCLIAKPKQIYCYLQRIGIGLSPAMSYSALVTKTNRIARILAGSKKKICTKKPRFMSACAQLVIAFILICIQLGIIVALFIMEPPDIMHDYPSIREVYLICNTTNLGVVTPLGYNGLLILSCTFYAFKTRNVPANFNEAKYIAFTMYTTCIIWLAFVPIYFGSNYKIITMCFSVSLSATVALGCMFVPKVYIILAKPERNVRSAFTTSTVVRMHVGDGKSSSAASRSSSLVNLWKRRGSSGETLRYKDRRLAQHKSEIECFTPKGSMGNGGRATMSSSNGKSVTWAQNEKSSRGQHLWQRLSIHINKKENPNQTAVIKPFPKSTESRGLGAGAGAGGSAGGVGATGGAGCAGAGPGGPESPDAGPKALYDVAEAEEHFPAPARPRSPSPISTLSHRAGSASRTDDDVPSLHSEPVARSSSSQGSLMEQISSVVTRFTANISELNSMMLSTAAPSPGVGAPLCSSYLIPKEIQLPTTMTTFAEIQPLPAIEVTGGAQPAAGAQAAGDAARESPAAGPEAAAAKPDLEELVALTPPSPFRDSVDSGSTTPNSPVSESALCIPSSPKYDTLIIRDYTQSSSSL
Experiment: Displacement of [3H]M-MPEP from mGluR5 in male human post mortem parietal cortical tissue after 30 mins by scintillation counting method
Recorded metric: pKi
Give bare numbers, as −log10 of the molar value.

Task: Any idea what pKi was measured for `N#Cc1cccc(S(=O)(=O)c2cnc3cc(F)ccc3c2-c2ccc(Cl)cc2)c1` ?
Result: 7.97

* * *

Test system: Liver
Test: Intrinsic clearance in human liver microsomes at 2.5 uM assessed per gram of liver
Type: ADME, microsome
Recorded metric: log10 of CLint (log10 of the value in mL/min/g)
# values: log10(CLint), units mL/min/g

# example entries with known answers
[[record]]
smiles_text = "O=S(=O)(c1ccc(F)cc1)c1cnc2ccc(F)cc2c1-c1ccc(Cl)cc1"
recorded_value = -0.92

[[record]]
smiles_text = "COc1cccc(-c2c(S(=O)(=O)c3ccc(OC)c(Cl)c3)cnc3cc(F)ccc23)c1"
recorded_value = 0.23

[[record]]
smiles_text = "COc1ccc(-c2c(S(=O)(=O)c3ccc(C)c(F)c3)cnc3c(F)cccc23)cc1"
recorded_value = 0.51

[[record]]
smiles_text = "Cc1ccc(S(=O)(=O)c2cnc3cc(F)ccc3c2-c2cccc(Cl)c2)cc1C"
recorded_value = 0.60

[[record]]
smiles_text = "O=S(=O)(c1ccc(F)c(Cl)c1)c1cnc2c(F)cccc2c1-c1cccc(F)c1"
recorded_value = 0.09


Please supply log10 of CLint for each of the following items, keeping them in order.
1. O=S(=O)(c1ccc(F)cc1)c1cnc2cc(F)c(Cl)cc2c1-c1ccc(Cl)cc1
2. N#Cc1cccc(S(=O)(=O)c2cnc3c(F)cccc3c2-c2ccc(Cl)cc2)c1
3. COc1cccc(-c2c(S(=O)(=O)c3ccc(F)cc3)cnc3c(F)cccc23)c1
4. O=S(=O)(c1cc(F)cc(F)c1)c1cnc2c(F)cccc2c1-c1cccc(F)c1
5. O=S(=O)(c1ccc(F)cc1)c1cnc2c(F)cccc2c1-c1cccc(F)c1

Result:
1. -2.00
2. -1.10
3. 0.35
4. 0.07
5. 0.19

Please supply log10 of CLint for each of the following items, keeping them in order.
1. O=S(=O)(c1ccc(F)cc1)c1cnc2c(F)c(Cl)ccc2c1-c1ccc(Cl)cc1
2. O=S(=O)(c1ccc(F)c(F)c1)c1cnc2c(F)cccc2c1-c1ccc(Cl)cc1
3. N#Cc1cccc(S(=O)(=O)c2cnc3cc(F)ccc3c2-c2ccccc2F)c1
4. COc1ccc(S(=O)(=O)c2cnc3c(F)cccc3c2-c2ccc(Cl)cc2)cc1
5. O=S(=O)(c1cc(Cl)cc(Cl)c1)c1cnc2c(F)cccc2c1-c1cccc(Cl)c1
6. O=S(=O)(c1cc(Cl)cc(Cl)c1)c1cnc2c(F)cccc2c1-c1cccc(F)c1

Result:
-2.00
-0.55
0.14
0.02
0.08
0.03

Please supply log10 of CLint for each of the following items, keeping them in order.
1. COc1cccc(-c2c(S(=O)(=O)c3cc(Cl)cc(Cl)c3)cnc3cc(F)ccc23)c1
2. COc1ccc(-c2c(S(=O)(=O)c3ccc(OC)cc3)cnc3c(F)cccc23)cc1
3. N#Cc1cccc(S(=O)(=O)c2cnc3cc(F)ccc3c2-c2ccc(F)cc2)c1

Result:
1. 0.18
2. 0.33
3. -0.41

* * *

Assay: Cmax in fasted female beagle dog at 1 mg/kg, po
Type: ADME, organism-based, Canis lupus familiaris
Set-up: dose 1 mg/kg, route oral
Conditions: in vivo
Recorded metric: Cmax (nM)
One number for each entry, in nM.

Task: Any idea what Cmax was measured for `N#Cc1cccc(S(=O)(=O)c2cnc3cc(F)ccc3c2-c2ccc(Cl)cc2)c1` ?
Result: 551

* * *

Test system: Liver
Test: Intrinsic clearance in human liver microsomes at 2.5 uM assessed per gram of liver
Assay type: ADME, microsome
CLint vs 0.8 mL/min/g: less than gives True; not less than gives False.

Please review the following examples before continuing.
[[record]]
smiles_text = "Cc1ccc(S(=O)(=O)c2cnc3c(F)cccc3c2-c2cccc(F)c2)cc1F"
class_assignment = "False"

[[record]]
smiles_text = "O=S(=O)(c1ccc(F)c(Cl)c1)c1cnc2cc(F)ccc2c1-c1cccc(F)c1"
class_assignment = "True"

[[record]]
smiles_text = "O=S(=O)(c1ccc(F)c(F)c1)c1cnc2cc(F)ccc2c1-c1cccc(F)c1"
class_assignment = "True"


Now look at this entry.
Task: # TODO verify CLint < 0.8 mL/min/g strictly for this compound: `O=S(=O)(c1ccc(F)c(Cl)c1)c1cnc2c(F)cccc2c1-c1cccc(Cl)c1`
Result: True

* * *

Test system: Liver
Experiment: Intrinsic clearance in human liver microsomes at 2.5 uM assessed per gram of liver
Assay type: ADME, microsome
Give Fulfilled when the value for CLint is at least 1 mL/min/g. Give Not fulfilled when it is less.

Please review the following examples before continuing.
[[record]]
smiles_text = "N#Cc1ccc2c(-c3ccc(Cl)cc3)c(S(=O)(=O)c3ccc(F)cc3)cnc2c1"
class_assignment = "Not fulfilled"

[[record]]
smiles_text = "COc1ccc(-c2c(S(=O)(=O)c3cccc(F)c3)cnc3c(F)cccc23)cc1"
class_assignment = "Fulfilled"

[[record]]
smiles_text = "O=S(=O)(c1cc(Cl)cc(Cl)c1)c1cnc2cc(F)ccc2c1-c1cccc(Cl)c1"
class_assignment = "Not fulfilled"

[[record]]
smiles_text = "Cc1ccc(S(=O)(=O)c2cnc3c(F)cccc3c2-c2cccc(Cl)c2)cc1F"
class_assignment = "Fulfilled"

[[record]]
smiles_text = "COc1ccc(S(=O)(=O)c2cnc3c(F)cccc3c2-c2cccc(OC)c2)cc1"
class_assignment = "Fulfilled"

[[record]]
smiles_text = "COc1ccc(-c2c(S(=O)(=O)c3ccc(F)c(Cl)c3)cnc3cc(F)ccc23)cc1"
class_assignment = "Fulfilled"

[[record]]
smiles_text = "COc1cccc(-c2c(S(=O)(=O)c3cccc(C#N)c3)cnc3cc(F)ccc23)c1"
class_assignment = "Fulfilled"

[[record]]
smiles_text = "COc1ccc(S(=O)(=O)c2cnc3cc(F)ccc3c2-c2cccc(F)c2)cc1Cl"
class_assignment = "Fulfilled"

[[record]]
smiles_text = "COc1ccc(-c2c(S(=O)(=O)c3cccc(F)c3)cnc3cc(F)ccc23)cc1"
class_assignment = "Fulfilled"

[[record]]
smiles_text = "COc1cccc(-c2c(S(=O)(=O)c3cc(F)cc(F)c3)cnc3cc(F)ccc23)c1"
class_assignment = "Fulfilled"


Task: Given `COc1ccc(S(=O)(=O)c2cnc3c(F)cccc3c2-c2cccc(F)c2)cc1` , state whether its CLint is at least 1 mL/min/g.
Result: Fulfilled

Task: Given `O=S(=O)(c1cc(F)cc(F)c1)c1cnc2cc(F)ccc2c1-c1cccc(F)c1` , state whether its CLint is at least 1 mL/min/g.
Result: Not fulfilled

Task: Given `O=S(=O)(c1ccc(F)cc1)c1cnc2cc(F)ccc2c1-c1ccc(F)cc1` , state whether its CLint is at least 1 mL/min/g.
Result: Fulfilled

Task: Given `O=S(=O)(c1cccc(F)c1)c1cnc2c(F)cccc2c1-c1ccc(F)cc1` , state whether its CLint is at least 1 mL/min/g.
Result: Not fulfilled

Task: Given `O=S(=O)(c1ccc(F)c(Cl)c1)c1cnc2cc(F)ccc2c1-c1ccc(Cl)cc1` , state whether its CLint is at least 1 mL/min/g.
Result: Not fulfilled

Task: Given `O=S(=O)(c1cc(Cl)cc(Cl)c1)c1cnc2cc(F)ccc2c1-c1cccc(F)c1` , state whether its CLint is at least 1 mL/min/g.
Result: Not fulfilled

Task: Given `N#Cc1cccc(S(=O)(=O)c2cnc3c(F)cccc3c2-c2ccc(F)cc2)c1` , state whether its CLint is at least 1 mL/min/g.
Result: Not fulfilled

Task: Given `O=S(=O)(c1cc(F)cc(F)c1)c1cnc2c(F)cccc2c1-c1ccc(Cl)cc1` , state whether its CLint is at least 1 mL/min/g.
Result: Not fulfilled

Task: Given `COc1ccc(-c2c(S(=O)(=O)c3ccc(C)c(C)c3)cnc3cc(F)ccc23)cc1` , state whether its CLint is at least 1 mL/min/g.
Result: Fulfilled

Task: Given `O=S(=O)(c1ccc(F)c(F)c1)c1cnc2c(F)cccc2c1-c1cccc(F)c1` , state whether its CLint is at least 1 mL/min/g.
Result: Fulfilled

// provenance: ChEMBL document CHEMBL4007421
